# method: qHTS RealTime-Glo MT Cell Viability Assay in HEK293 cells - 32 hour (AID 1224868); also: nearly all actives have a fitted effect of over 50% in size
# condition: RealTime-Glo luminescence; series mostly up to 76.8 µM
Inconclusive results are not listed. Active and inactive are the calls of the source. Calls follow the shape of the dose curve; as a rule, active = well fitted cell-killing curve with a large enough effect in the repeat runs; inconclusive = weak or mixed curves, or effect the other way; inactive = flat fitted curve, though single readings scatter.
Classes used: yes (1) (active), no (0) (inactive)

compound="C/C=C(\\C)C(=O)OCCC(C)CCC=C(C)C (stereo not drawn)" discrete_label="no (0)"
compound=C[Si]1(C)O[Si](C)(C)O[Si](C)(C)O1 discrete_label="no (0)"
compound=CCOCCn1c(C2CCN(CCc3ccc(C(C)(C)C(=O)O)cc3)CC2)nc2ccccc21 discrete_label="no (0)"
compound=CC(=O)Nc1ccccc1C discrete_label="no (0)"
compound=C=CCNc1nc(NCC=C)nc(N2CCN(C(c3ccc(F)cc3)c3ccc(F)cc3)CC2)n1 discrete_label="no (0)"
compound=CCOC(=N)CC(=O)OCC discrete_label="no (0)"
compound=CC(C)=CC=O discrete_label="no (0)"
compound=Cc1ccc(/C=N/n2c(-c3ccccc3)csc2=S)cc1 discrete_label="no (0)"
compound=CCC(C)=O discrete_label="no (0)"
compound=CSc1ccc(Oc2ccc(S(N)(=O)=O)cc2CN(C)C)cc1C discrete_label="yes (1)"
compound=Oc1cc(O)c(Cl)cc1Cl discrete_label="no (0)"
compound=CCCCCCCCCCCC(=O)[O][Sn]([CH2]CCC)([CH2]CCC)[O]C(=O)CCCCCCCCCCC discrete_label="yes (1)"
compound="CC(Cl)C(Cl)Cl (stereo not drawn)" discrete_label="no (0)"
compound=CCCCC(=O)O[C@]1(C(=O)CO)CC[C@H]2[C@@H]3CCC4=CC(=O)CC[C@]4(C)[C@H]3[C@@H](O)C[C@@]21C discrete_label="no (0)"
compound=NC(=O)N(O)[C@@H]1C=C[C@H](Oc2cccc(Oc3ccc(F)cc3)c2)C1 discrete_label="yes (1)"
compound="CC1CC(O)CC(C)(C)C1 (stereo not drawn)" discrete_label="no (0)"
compound=Nc1ccc(Cl)cc1[N+](=O)[O-] discrete_label="no (0)"
compound=Cc1cc(O)c(C(C)C)cc1Cl discrete_label="no (0)"
compound=COc1cc2ncnc(Nc3ccc(F)c(Cl)c3)c2cc1OCCCN1CCOCC1 discrete_label="yes (1)"
compound=O=[N+]([O-])c1cccc(S(=O)(=O)NCCNS(=O)(=O)c2cccc([N+](=O)[O-])c2)c1 discrete_label="no (0)"
compound="C=CC(C)(O)CCCC(C)CCCC(C)CCCC(C)C (stereo not drawn)" discrete_label="no (0)"
compound=CO[C@H]1C=CO[C@@]2(C)Oc3c(C)c(O)c4c(O)c(c5c(c4c3C2=O)=NC2(CCN(CC(C)C)CC2)N=5)NC(=O)/C(C)=C\C=C/[C@H](C)[C@H](O)[C@@H](C)[C@@H](O)[C@@H](C)[C@H](OC(C)=O)[C@@H]1C discrete_label="yes (1)"
compound="CCCCC(CC)COC(=O)COc1ccc(Cl)cc1C (stereo not drawn)" discrete_label="no (0)"

Values from PubChem BioAssay (Tox21)
